Molecular target: T1, EsCas13d, nuclease-dead (Eubacterium siraeum, UniProt B0MS50, R295A;H300A;R849A;H854A)
T1 sequence: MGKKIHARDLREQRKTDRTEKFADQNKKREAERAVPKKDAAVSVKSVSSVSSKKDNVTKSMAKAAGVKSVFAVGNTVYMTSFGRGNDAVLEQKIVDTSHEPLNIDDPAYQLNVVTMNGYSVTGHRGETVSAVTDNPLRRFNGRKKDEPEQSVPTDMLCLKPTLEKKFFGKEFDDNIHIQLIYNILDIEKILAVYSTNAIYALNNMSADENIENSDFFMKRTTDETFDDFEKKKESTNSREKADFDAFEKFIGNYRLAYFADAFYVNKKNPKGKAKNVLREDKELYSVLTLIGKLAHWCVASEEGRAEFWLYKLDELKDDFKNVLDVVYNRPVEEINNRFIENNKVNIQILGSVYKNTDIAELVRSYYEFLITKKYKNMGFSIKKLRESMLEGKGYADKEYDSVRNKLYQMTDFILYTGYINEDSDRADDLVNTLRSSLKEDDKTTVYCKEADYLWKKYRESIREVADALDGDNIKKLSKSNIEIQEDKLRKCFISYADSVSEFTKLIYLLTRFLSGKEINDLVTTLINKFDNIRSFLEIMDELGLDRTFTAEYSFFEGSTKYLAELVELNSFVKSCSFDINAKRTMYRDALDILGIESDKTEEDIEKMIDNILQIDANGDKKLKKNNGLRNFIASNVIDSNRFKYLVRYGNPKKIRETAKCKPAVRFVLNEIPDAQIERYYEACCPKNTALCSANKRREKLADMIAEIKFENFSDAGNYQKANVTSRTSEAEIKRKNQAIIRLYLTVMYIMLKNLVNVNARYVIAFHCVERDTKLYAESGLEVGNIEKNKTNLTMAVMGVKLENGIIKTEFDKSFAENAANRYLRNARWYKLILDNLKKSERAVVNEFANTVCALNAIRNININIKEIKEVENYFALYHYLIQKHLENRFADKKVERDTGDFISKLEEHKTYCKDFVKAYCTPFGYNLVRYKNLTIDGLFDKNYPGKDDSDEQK
Experiment: crRNA (strand 1, pre-loaded); Mg2+; 40 mM Tris-HCl pH 7.5, 150 mM NaCl, 6 mM MgCl2, 1 mM DTT, 0.1% Tween-20, 0.2 mg/ml BSA; 25 C; 10 min per concentration, then washed
Details: tags: His6-TwinStrep-SUMO cleaved; N-terminal SNAP kept (SNAP-Surface 488); label: 3' end held by stalled T7 RNA polymerase
pKd: −log10 of the molar value.
observation_type: pKd

>  <binder>
target 1 MT 5'PFS AGG 3'PFS UCU (mixed) RNA 1: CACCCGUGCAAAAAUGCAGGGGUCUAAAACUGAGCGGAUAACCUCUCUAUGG RNA 2: GGGAAUGGAUCCACAUCUACGAAUUCAGGCCAUAGAGAGGUUAUCCGCUCAUCUAGAUCGGAAGAGCACACGU

>  <observation_type>
pKd

>  <result>
7.52

$$$$
>  <binder>
target 3 complement block 2-7 (mixed) RNA 1: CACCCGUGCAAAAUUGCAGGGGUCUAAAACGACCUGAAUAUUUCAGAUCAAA RNA 2: GGGAAUGGAUCCACAUCUACGAAUUCGUUUUUGAUCUGAAAUAUAGUCCACUGCAGAUCGGAAGAGCACACGU

>  <observation_type>
pKd

>  <result>
7.26

$$$$
>  <binder>
target 2 MT 5'PFS UGA 3'PFS AUU (mixed) RNA 1: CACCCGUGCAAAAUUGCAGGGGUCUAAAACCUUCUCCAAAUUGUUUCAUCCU RNA 2: GGGAAUGGAUCCACAUCUACGAAUUCUGAAGGAUGAAACAAUUUGGAGAAGAUUAGAUCGGAAGAGCACACGU

>  <observation_type>
pKd

>  <result>
8.12

$$$$
>  <binder>
target 1 insA 3' of 22,insC 3' of 20 (mixed) RNA 1: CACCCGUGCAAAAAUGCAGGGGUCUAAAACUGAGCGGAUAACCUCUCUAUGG RNA 2: GGGAAUGGAUCCACAUCUACGAAUUCGUACACACUAGAGAGGUUAUCCGCUCACCGAGAUCGGAAGAGCACACGU

>  <observation_type>
pKd

>  <result>
8.23

$$$$
>  <binder>
target 1 MT 5'PFS GAG 3'PFS UAA (mixed) RNA 1: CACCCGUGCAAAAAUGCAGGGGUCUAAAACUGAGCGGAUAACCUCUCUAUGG RNA 2: GGGAAUGGAUCCACAUCUACGAAUUCGAGCCAUAGAGAGGUUAUCCGCUCAUAAAGAUCGGAAGAGCACACGU

>  <observation_type>
pKd

>  <result>
7.55

$$$$
>  <binder>
target 2 MT 5'PFS UGU 3'PFS UCU (mixed) RNA 1: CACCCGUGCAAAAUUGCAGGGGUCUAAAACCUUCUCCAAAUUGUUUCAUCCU RNA 2: GGGAAUGGAUCCACAUCUACGAAUUCUGUAGGAUGAAACAAUUUGGAGAAGUCUAGAUCGGAAGAGCACACGU

>  <observation_type>
pKd

>  <result>
7.75

$$$$
>  <binder>
target 1 insG 3' of 20,insA 3' of 13 (mixed) RNA 1: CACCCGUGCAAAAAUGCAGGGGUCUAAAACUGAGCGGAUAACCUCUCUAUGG RNA 2: GGGAAUGGAUCCACAUCUACGAAUUCGUACCAGUAGAGAGAGUUAUCCGCUCACCGAGAUCGGAAGAGCACACGU

>  <observation_type>
pKd

>  <result>
7.49

$$$$
>  <binder>
target 1 U10A,A18C (mixed) RNA 1: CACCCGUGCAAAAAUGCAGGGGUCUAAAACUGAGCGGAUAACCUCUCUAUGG RNA 2: GGGAAUGGAUCCACAUCUACGAAUUCGUACCAUCGAGAGGUAAUCCGCUCACCGAGAUCGGAAGAGCACACGU

>  <observation_type>
pKd

>  <result>
7.00

$$$$

Ref: paper PMC10786891
